Molecular target: Tyrosine-protein kinase receptor UFO (Homo sapiens)
Sequence (P30530 whole entry): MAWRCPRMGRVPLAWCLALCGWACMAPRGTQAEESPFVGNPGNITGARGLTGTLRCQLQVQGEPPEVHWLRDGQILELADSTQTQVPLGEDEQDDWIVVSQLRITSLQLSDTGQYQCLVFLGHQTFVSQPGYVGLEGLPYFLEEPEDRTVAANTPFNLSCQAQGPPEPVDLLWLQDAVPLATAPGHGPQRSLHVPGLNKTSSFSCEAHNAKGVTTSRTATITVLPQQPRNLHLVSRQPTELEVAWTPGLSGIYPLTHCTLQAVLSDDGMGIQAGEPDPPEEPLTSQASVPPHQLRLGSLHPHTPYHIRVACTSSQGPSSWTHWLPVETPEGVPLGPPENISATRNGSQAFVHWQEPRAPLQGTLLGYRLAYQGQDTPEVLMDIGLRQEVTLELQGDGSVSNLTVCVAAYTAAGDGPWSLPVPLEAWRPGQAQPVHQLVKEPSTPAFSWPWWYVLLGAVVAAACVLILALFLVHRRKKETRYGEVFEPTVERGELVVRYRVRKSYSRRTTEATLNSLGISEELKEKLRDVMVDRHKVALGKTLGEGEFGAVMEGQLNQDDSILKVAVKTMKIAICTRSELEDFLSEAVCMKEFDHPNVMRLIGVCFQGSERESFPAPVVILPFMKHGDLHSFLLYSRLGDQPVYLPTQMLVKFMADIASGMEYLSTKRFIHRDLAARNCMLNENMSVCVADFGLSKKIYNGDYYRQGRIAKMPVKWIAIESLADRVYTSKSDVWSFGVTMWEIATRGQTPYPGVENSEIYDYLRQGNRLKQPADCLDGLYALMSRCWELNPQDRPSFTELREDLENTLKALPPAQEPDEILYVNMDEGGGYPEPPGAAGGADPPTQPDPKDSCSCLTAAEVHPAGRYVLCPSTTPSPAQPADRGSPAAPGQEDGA
Study the reported IC50 values for Tyrosine-protein kinase receptor UFO (Homo sapiens) given below; they originate from different publications.
Each entry falls into one class according to its IC50; the ranges are bottom end (below 10 nM), midrange (10 nM to below 4000 nM), top end (4000 nM or more)

Use the examples below as a reference point.
- CC(C)n1cc(C(=O)Nc2ccc(Oc3ncnc4c3CN(C)C4)c(F)c2)c(=O)n(-c2ccc(F)cc2)c1=O: midrange
- CC(C)n1cc(C(=O)Nc2ccc(Oc3ncnc4c3CN(C(=O)CN3CCN(C)CC3)C4)c(F)c2)c(=O)n(-c2ccc(F)cc2)c1=O: bottom end
- Cc1c(O)c(O)c(O)c2c1COC2=O: midrange
- COc1ccc(NC(=S)N2CCN(c3nnc(Cc4ccccc4)c4ccccc34)CC2)cc1: top end
- COc1ccc(Cc2nnc(N3CCN(C(=O)c4ccccc4)CC3)c3ccccc23)cc1: top end

Inquiry: Which of the defined bands does the recorded IC50 of `Cn1cc(-c2ccc(NC(=O)c3cn(CC4CCOCC4)cc(-c4ccc(F)cc4F)c3=O)cc2)c2c(N)ncnc21` sit within?
Reply text: bottom end

Inquiry: Which of the defined bands does the recorded IC50 of `CC(C)n1cc(C(=O)Nc2ccc(Oc3ncnc4c3CCN(CC(=O)N3CCN(C)CC3)C4)c(F)c2)c(=O)n(-c2ccc(F)cc2)c1=O` sit within?
Reply text: bottom end

Inquiry: Which of the defined bands does the recorded IC50 of Nc1nc(NCCNC(=O)CCCCCCNc2cccc3c2CN(C2CCC(=O)NC2=O)C3=O)nn1-c1ccc(-c2ccccc2)nn1 (stereo not drawn) sit within?
Reply text: top end

Inquiry: Which of the defined bands does the recorded IC50 of `Cc1cnc(Nc2ccc(OCCN3CCCCC3)cc2)nc1-c1ccc(F)c(Cl)c1` sit within?
Reply text: midrange

Inquiry: Which of the defined bands does the recorded IC50 of `CC(C)n1cc(C(=O)Nc2ccc(Oc3ncnc4c3CCN(C3CN(C)C3)C4)c(F)c2)c(=O)n(-c2ccc(F)cc2)c1=O` sit within?
Reply text: bottom end
